All figures here come from ChEMBL document CHEMBL1961873.

- target of assay: Mitogen-activated protein kinase 12 (Homo sapiens);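 further: values are averaged p38gamma kinase inhibition readings, compounds tested at 1 µM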
- Sequence (whole entry): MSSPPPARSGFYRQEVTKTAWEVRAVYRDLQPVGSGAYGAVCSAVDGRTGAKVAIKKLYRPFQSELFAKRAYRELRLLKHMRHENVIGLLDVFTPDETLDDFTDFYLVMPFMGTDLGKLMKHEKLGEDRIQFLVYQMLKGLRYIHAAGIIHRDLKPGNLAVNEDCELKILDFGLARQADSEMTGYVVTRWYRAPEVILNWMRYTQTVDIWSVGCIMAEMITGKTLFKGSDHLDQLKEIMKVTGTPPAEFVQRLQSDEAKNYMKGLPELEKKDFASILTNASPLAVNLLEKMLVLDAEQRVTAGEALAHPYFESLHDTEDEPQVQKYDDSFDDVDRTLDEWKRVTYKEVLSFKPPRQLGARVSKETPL
- condition parameters: at 1 µM
Attribute: inhibition
// units = %; emit number, no label

Below: 8 compounds and their reported inhibition.
CS(=O)(=O)Nc1ccc(-c2cc(-c3ccccc3)cc(C(N)=O)c2N)cc1: 1.43
O=C(Nc1n[nH]c2nnc(-c3cccnc3)cc12)C1CC1: 3.03
CC1=C(C(=O)Nc2ccc3[nH]nc(C)c3c2)C(c2ccc(C(F)(F)F)cc2)CC(=O)N1 (centres undefined): 2.82
Cc1ccc(-c2cc3c(NC(=O)C4CC4)ncnc3o2)cc1: 2.7
CS(=O)(=O)CCNCc1ccc(-c2ccc3ncnc(Nc4ccc(OCc5cccc(C(F)(F)F)c5)cc4)c3c2)o1: 6.4
CN(C)CCNC(=O)Nc1ccc(N(C)c2ccnc(Nc3ccc(CS(C)(=O)=O)cc3)n2)cc1: 2.24
Fc1ccc(Nc2nccc(-c3c(-c4ccc(C(F)(F)F)cc4)nn4ncccc34)n2)cc1F: 2.9
CC1=C(C(=O)Nc2ccc3[nH]ncc3c2)C(c2ccc(F)cc2)N=C(c2ccc(C(F)(F)F)nc2)N1 (centres undefined): 1.85

Then this compound:
Query block: For `COC(=O)Nc1nc2cc(Oc3ccc(NC(=O)Nc4ccccc4)cc3)ccc2[nH]1` , what is its reported inhibition?
Result block: 1.26
